Measured log10 IC50, listed per entry for reference.
assay.system: Active Human ERK2 (hERK2) (Homo sapiens (Human))
assay.info: Active Human ERK2 (hERK2) Activity Assay (IMAP-FP)
Type: biochemical
test.conditions: phosphorylated active hERK2, 30 μM ATP; average; read-out: ERK 2 Human average IC50
Give log10 of IC50, with IC50 taken in nM.

Record excerpt, results attached:
[[record]]
input_smiles = "Cc1cc(-c2n[nH]c3cc(NC(=O)N[C@H]4CN(C)[C@H](C(F)F)[C@@H]4c4ccccc4)ncc23)ccn1"
val = 0.17

[[record]]
input_smiles = "COC[C@@H](NC(=O)Nc1cc2[nH]nc(-c3cnc(OC)nc3)c2cn1)c1ccccc1"
val = -0.06

[[record]]
input_smiles = "CCCc1n[nH]c2cc(NC(=O)N[C@H](C)c3ccccc3)ncc12"
val = 0.21

[[record]]
input_smiles = "Cc1cc(-c2n[nH]c3cc(NC(=O)N[C@H](C)c4ncccc4F)ncc23)ccn1"
val = -0.16

[[record]]
input_smiles = "COc1ccnc([C@H](C)NC(=O)Nc2cc3[nH]nc(-c4ccnc(C)c4)c3cn2)c1"
val = 2.81


Qu. Give its log10 IC50 value. Item: Cc1cc(-c2n[nH]c3cc(NC(=O)NCc4ccc(F)c(Cl)c4)ncc23)ccn1
Ans. -0.39

Qu. I have this compound here, C[C@@H](NC(=O)Nc1cc2[nH]nc(-c3cc[n+]([O-])cc3)c2cn1)c1ccccc1 , and I need its recorded log10 IC50.
Ans. -0.42

Qu. Tell me the measured log10 IC50 of Cc1cc(-c2n[nH]c3cc(NC(=O)NCc4cc(C)on4)ncc23)ccn1 , please.
Ans. 0.61

Qu. Entry Cc1cc(-c2n[nH]c3cc(NC(=O)NCc4ccno4)ncc23)ccn1 : reported log10 IC50 = ?
Ans. 0.03

Qu. Fill in the blank: the reported log10 IC50 of CCOC[C@@H](NC(=O)Nc1cc2[nH]nc(-c3cc(C)on3)c2cn1)c1ccccc1 is ____.
Ans. 0.83

Qu. For the compound shown here, Cc1cc(-c2n[nH]c3cc(NC(=O)N[C@@H]4COC[C@H]4c4ccccc4)ncc23)ccn1 , give the reported log10 IC50.
Ans. -0.71

Qu. Quick one: log10 IC50 of O=C(Nc1cc2[nH]nc(-c3ccncc3)c2cn1)N[C@H](CO)c1ccccc1 ?
Ans. -0.45

Qu. Param item = Cc1cc(-c2n[nH]c3cc(NC(=O)N[C@@H]4CNC[C@@H]4c4ccccc4)ncc23)ccn1 ; retrieve measured log10 IC50.
Ans. 0.66

Qu. For the compound shown here, Cc1cc(-c2n[nH]c3cc(NC(=O)N[C@H](C)c4ccc(C(F)(F)F)nc4)ncc23)ccn1 , give the reported log10 IC50.
Ans. 2.75

Qu. // returns reported log10 IC50 for input Cc1cc(-c2n[nH]c3cc(NC(=O)Nc4noc5cccnc45)ncc23)ccn1
Ans. -0.37

Qu. // log10 IC50 lookup, key: Cc1cc(-c2n[nH]c3cc(NC(=O)NCCc4cn[nH]c4)ncc23)ccn1
Ans. -0.07

====

assay.system: Active Human ERK2 (hERK2) (Homo sapiens (Human), UniProt P28482)
Sequence (P28482 whole entry): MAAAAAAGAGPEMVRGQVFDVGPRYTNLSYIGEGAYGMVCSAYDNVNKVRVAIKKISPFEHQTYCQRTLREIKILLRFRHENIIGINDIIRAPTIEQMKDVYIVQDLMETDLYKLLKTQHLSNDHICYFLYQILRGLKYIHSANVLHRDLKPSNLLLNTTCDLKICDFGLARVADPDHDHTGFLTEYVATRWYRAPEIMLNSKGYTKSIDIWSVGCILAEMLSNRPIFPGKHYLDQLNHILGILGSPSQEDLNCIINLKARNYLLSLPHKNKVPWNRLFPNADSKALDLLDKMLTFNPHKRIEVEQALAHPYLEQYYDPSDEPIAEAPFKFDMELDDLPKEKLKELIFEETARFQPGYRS
assay.info: Active Human ERK2 (hERK2) Activity Assay (IMAP-FP)
Assay type: biochemical
test.conditions: phosphorylated active hERK2, 30 μM ATP; average; read-out: ERK 2 Human average IC50
Lab note: anything with IC50 below 4 nM is marked Condition met; values at 4 nM or higher are marked Condition not met.

Here's what some known entries look like.
[[record]]
compound = "COCc1n[nH]c2cc(NC(=O)N[C@H](C)c3ccccc3)ncc12"
label_value = "Condition not met"

[[record]]
compound = "C[C@@H](NC(=O)Nc1cc2[nH]nc(-c3ccc(=O)n(C)c3)c2cn1)c1ccc(F)cc1"
label_value = "Condition met"

[[record]]
compound = "CCOCCNC(=O)Nc1cc2[nH]nc(-c3ccc(F)cc3)c2cn1"
label_value = "Condition met"

[[record]]
compound = "Cc1cc(-c2n[nH]c3cc(NC(=O)N[C@H](COCC4CC4)c4ccccc4)ncc23)no1"
label_value = "Condition not met"

[[record]]
compound = "Cc1cc(-c2n[nH]c3cc(NC(=O)N[C@@H](c4ccc(F)cc4)C(F)(F)F)ncc23)ccn1"
label_value = "Condition not met"

[[record]]
compound = "CCN(CC)CCC(NC(=O)Nc1cc2[nH]nc(-c3ccnc(C)c3)c2cn1)c1ccccc1 (centres unmarked)"
label_value = "Condition met"

[[record]]
compound = "O=C(NCc1ncco1)Nc1cc2[nH]nc(-c3ccc(F)cc3)c2cn1"
label_value = "Condition not met"


# ---- query compound ----
Qu. Does the reported IC50 of the following compound sit strictly below 4 nM? C[C@@H](NC(=O)Nc1cc2[nH]nc(C3CC3)c2cn1)c1ccccc1
Ans. Condition met
